test name: Cytotoxicity against human HFL1 cells assessed as inhibition of cell growth incubated for 72 hrs by MTT assay
Format: toxicity, cell-based
Would you kindly list IC50 at 72 h for each of these molecules?
# unit: µM | format: bare number

Exam item: Which IC50 at 72 h is reported for this molecule? C=C(C)[C@@H]1CC[C@]2(C(=O)N(CCCN(C)C)C(=O)NCC)CC[C@]3(C)[C@H](CC[C@@H]4[C@@]5(C)CC[C@H](O)[C@@](C)(COC(=O)CCC(=O)OCc6cn(C)c7c6C(=O)C(OC)=CC7=O)[C@@H]5CC[C@]43C)[C@@H]12
Marked response: 4.22

Exam item: Which IC50 at 72 h is reported for this molecule? C=C(C)[C@@H]1CC[C@]2(C(=O)OCCOC(=O)CCC(=O)OCc3cn(C)c4c3C(=O)C(OC)=CC4=O)CC[C@]3(C)[C@H](CC[C@@H]4[C@@]5(C)CCC(=O)[C@@](C)(COC(C)=O)[C@@H]5CC[C@]43C)[C@@H]12
Marked response: 6.53

Exam item: Which IC50 at 72 h is reported for this molecule? C=C(C)[C@@H]1CC[C@]2(C(=O)O)CC[C@]3(C)[C@H](CC[C@@H]4[C@@]5(C)CC[C@H](OC(=O)CCC(=O)OCc6cn(C)c7c6C(=O)C(OC)=CC7=O)[C@@](C)(COC(C)=O)[C@@H]5CC[C@]43C)[C@@H]12
Marked response: 7.25

Exam item: Which IC50 at 72 h is reported for this molecule? C=C(C)[C@@H]1CC[C@]2(C(=O)OCCOC(=O)CCC(=O)OCc3cn(C)c4c3C(=O)C(OC)=CC4=O)CC[C@]3(C)[C@H](CC[C@@H]4[C@@]5(C)CC[C@H](O)[C@@](C)(CO)[C@@H]5CC[C@]43C)[C@@H]12
Marked response: 6.45

Exam item: Which IC50 at 72 h is reported for this molecule? C=C(C)[C@@H]1CC[C@]2(C(=O)O)CC[C@]3(C)[C@H](CC[C@@H]4[C@@]5(C)CC[C@H](OC(=O)CCCC(=O)OCc6cn(C)c7c6C(=O)C(OC)=CC7=O)[C@@](C)(COC(C)=O)[C@@H]5CC[C@]43C)[C@@H]12
Marked response: 4.09

Exam item: Which IC50 at 72 h is reported for this molecule? C=C(C)[C@@H]1CC[C@]2(C(=O)OCCOC(=O)CCC(=O)OCc3cn(C)c4c3C(=O)C(OC)=CC4=O)CC[C@]3(C)[C@H](CC[C@@H]4[C@@]5(C)CC[C@H](NC(=O)CCC(=O)N6CCNCC6)[C@@](C)(COC(C)=O)[C@@H]5CC[C@]43C)[C@@H]12
Marked response: 7.11

Exam item: Which IC50 at 72 h is reported for this molecule? C=C(C)[C@@H]1CC[C@]2(C(=O)O)CC[C@]3(C)[C@H](CC[C@@H]4[C@@]5(C)CC[C@H](O)[C@@](C)(CO)[C@@H]5CC[C@]43C)[C@@H]12
Marked response: 75

Exam item: Which IC50 at 72 h is reported for this molecule? C=C(C)[C@@H]1CC[C@]2(C(=O)NCCNC(=O)CCC(=O)OCc3cn(C)c4c3C(=O)C(OC)=CC4=O)CC[C@]3(C)[C@H](CC[C@@H]4[C@@]5(C)CC[C@H](OC(C)=O)[C@@](C)(COC(C)=O)[C@@H]5CC[C@]43C)[C@@H]12
Marked response: 5.78
